This collection of values is drawn from patent US12371454B2.

experimentalSystem: Kras and SOS1 (biotin-tagged human Kras loaded with GDP, His-tagged human SOS1) (Homo sapiens, UniProt P01116, G12D)
Construct: made in house; host or cells: E. coli (stated for Kras only)
Sequence (P01116 1-188 isoform P01116-2 G12D): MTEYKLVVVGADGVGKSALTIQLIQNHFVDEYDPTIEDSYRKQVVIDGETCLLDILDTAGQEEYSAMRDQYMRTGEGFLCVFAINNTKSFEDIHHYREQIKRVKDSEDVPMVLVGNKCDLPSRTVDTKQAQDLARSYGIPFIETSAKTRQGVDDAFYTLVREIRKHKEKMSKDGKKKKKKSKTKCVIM
methodDescription: Protein-protein interaction inhibition between Kras and SOS1 (KrasGl2D-SOS PPI) using AlphaScreen
Assay type: binding
assayContext: AlphaScreen; biotin-tagged human Kras loaded with GDP, His-tagged human SOS1; read-out: KRAS G12D-SOS PPI IC50
Protocol: Protein-Protein Interaction Inhibition Between Kras and SOS1 (KrasGl2D-SOS PPI) Using AlphaScreen Protein-protein interaction inhibition (PPI) between Kras and SOS1 was measured by energy transfer from nickel-conjugated donor beads to streptavidin-conjugated acceptor beads using biotin-tagged human Kras expressed in E. coli and loaded with GDP after purification and His-tagged human SOS1 enzyme. […]
Starred links: 1 amine or outer side, 2 acyl side, 3 side chain; linkers in the order of their positions; H or OH if unused. Positions of bridges follow the written chain, without caps; N, C: chain ends. Non-standard residues stand in square brackets, D forms with d. Residues, ends and D or L forms follow the SMILES beside them. *: point of attachment. hPhe(3-Cl-4-CF3) = N[C@@H](CCc1ccc(C(F)(F)F)c(Cl)c1)C(=O)O; NMePhe(4-Me) = CN[C@@H](Cc1ccc(C)cc1)C(=O)O; X56 = O=C([C@H](Cc1cc(F)ccc1F)N[*:1])[*:2]; X22 = O=C([C@@H]1Cc2ccccc2N1[*:1])[*:2]; NMeGly(cPent) = CN[C@H](C(=O)O)C1CCCC1; NMeY = CN[C@@H](Cc1ccc(O)cc1)C(=O)O; NMeCha = CN[C@@H](CC1CCCCC1)C(=O)O; NMeChg = CN[C@H](C(=O)O)C1CCCCC1; NMeD = CN[C@@H](CC(=O)O)C(=O)O; NMeL = CN[C@@H](CC(C)C)C(=O)O; NMeV = CN[C@H](C(=O)O)C(C)C; d(β3hA) = C[C@@H](N)CC(=O)O; NMeAbu = CC[C@H](NC)C(=O)O; NMeA = CN[C@@H](C)C(=O)O; NMeAib = CNC(C)(C)C(=O)O; Nle = CCCC[C@H](N)C(=O)O; Piperidide = C1CCN(*)CC1; Ac5c = NC1(C(=O)O)CCCC1; Aze = O=C(O)[C@@H]1CCN1; Sar = CNCC(=O)O
valueType: IC50 (nM)
Please reply with the bare figure in nM and do not write the unit itself.

- molecule: "CCCC[C@@H]1NC(=O)[C@H](Cc2cc(F)ccc2F)NC(=O)CN(C)C(=O)[C@H](Cc2ccc(OC)cc2)N(C)C(=O)[C@@H]2CCN2C(=O)[C@H](C)N(C)C(=O)[C@H]([C@@H](C)CC)NC(=O)[C@H](CC)N(C)C(=O)C[C@@H](C(=O)N2CCCCC2)N(C)C(=O)[C@H](CC(C)C)NC(=O)C(C)(C)N(C)C1=O [Compound 1268] ([NMeAbu]I[NMeA][Aze][NMeY](Me)[Sar][X56][Nle][NMeAib]L[NMeD]-Piperidide; lactam N-11)"
  valueMeasured: 19

Enquiry: What value of IC50 has been recorded for this entry: CC[C@H](C)[C@@H]1NC(=O)[C@H](CC)N(C)C(=O)C[C@@H](C)NC(=O)[C@H](C(C)C)N(C)C(=O)C2(CCCC2)NC(=O)[C@@H]2CCCN2C(=O)[C@H](CCc2ccc(C(F)(F)F)c(Cl)c2)NC(=O)CN(C)C(=O)[C@H](CC2CCCCC2)N(C)C(=O)[C@@H]2CCN2C(=O)[C@H](C)N(C)C1=O [Compound 1607] (cyclo([Ac5c][NMeV][d(β3hA)][NMeAbu]I[NMeA][Aze][NMeCha][Sar][hPhe(3-Cl-4-CF3)]P))
Return: 28

Enquiry: What value of IC50 has been recorded for this entry: CC[C@H](C)[C@@H]1NC(=O)[C@H](CC(C)C)N(C)C(=O)C[C@@H](C(=O)N(C)C)N(C)C(=O)[C@H](C2CCCC2)N(C)C(=O)C2(CCCC2)NC(=O)[C@@H]2CCCN2C(=O)[C@H](CCc2ccc(C(F)(F)F)c(Cl)c2)NC(=O)CN(C)C(=O)[C@H](Cc2ccc(C)cc2)N(C)C(=O)[C@@H]2CCN2C(=O)[C@H](C)NC1=O [Compound 363] ([NMeL]IA[Aze][NMePhe(4-Me)][Sar][hPhe(3-Cl-4-CF3)]P[Ac5c][NMeGly(cPent)][NMeD]-NMe2; lactam N-11)
Return: 0.65

Enquiry: What value of IC50 has been recorded for this entry: CC[C@H](C)[C@@H]1NC(=O)[C@H](CC(C)C)N(C)C(=O)C[C@@H](C(=O)N2CCCCC2)N(C)C(=O)[C@H](C2CCCCC2)N(C)C(=O)C2(CCCC2)NC(=O)[C@@H]2Cc3ccccc3N2C(=O)[C@H](CCc2ccc(C(F)(F)F)c(Cl)c2)NC(=O)CN(C)C(=O)[C@H](CC2CCCCC2)N(C)C(=O)[C@@H]2CCN2C(=O)[C@H](C)N(C)C1=O [Compound 812] ([NMeL]I[NMeA][Aze][NMeCha][Sar][hPhe(3-Cl-4-CF3)][X22][Ac5c][NMeChg][NMeD]-Piperidide; lactam N-11)
Return: 36

Enquiry: What value of IC50 has been recorded for this entry: CO[C@H](C)[C@@H]1NC(=O)[C@H](CC(C)C)N(C)C(=O)C[C@@H](C(=O)N2CCCCC2)N(C)C(=O)[C@H](C2CCCCC2)N(C)C(=O)C2(CCCC2)NC(=O)[C@@H]2CCCN2C(=O)[C@H](CCc2ccc(C(F)(F)F)c(Cl)c2)NC(=O)CN(C)C(=O)[C@H](CC2CCCCC2)N(C)C(=O)CN(C)C(=O)CN(C)C1=O [Compound 535] ([NMeL]T(Me)[Sar][Sar][NMeCha][Sar][hPhe(3-Cl-4-CF3)]P[Ac5c][NMeChg][NMeD]-Piperidide; lactam N-11)
Return: 0.65

====

experimentalSystem: Kras and SOS1 (biotin-tagged human Kras loaded with GDP, His-tagged human SOS1) (Homo sapiens, UniProt P01116, G12D)
Construct: made in house; host or cells: E. coli (stated for Kras only)
methodDescription: Protein-protein interaction inhibition between Kras and SOS1 (KrasGl2D-SOS PPI) using AlphaScreen
Assay type: binding
assayContext: AlphaScreen; biotin-tagged human Kras loaded with GDP, His-tagged human SOS1; read-out: KRAS G12D-SOS PPI IC50
Positions of bridges follow the written chain, without caps; N, C: chain ends. Non-standard residues stand in square brackets, D forms with d. Residues, ends and D or L forms follow the SMILES beside them. *: point of attachment. hPhe(3-Cl-4-CF3) = N[C@@H](CCc1ccc(C(F)(F)F)c(Cl)c1)C(=O)O; NMeCha = CN[C@@H](CC1CCCCC1)C(=O)O; NMeCba = CN[C@@H](CC1CCC1)C(=O)O; NMeChg = CN[C@H](C(=O)O)C1CCCCC1; Gly(cBu) = N[C@H](C(=O)O)C1CCC1; NMeD = CN[C@@H](CC(=O)O)C(=O)O; NMeL = CN[C@@H](CC(C)C)C(=O)O; NMeV = CN[C@H](C(=O)O)C(C)C; d(β3hA) = C[C@@H](N)CC(=O)O; NMeS = CN[C@@H](CO)C(=O)O; Pyrrolidide = C1CCN(*)C1; Ac5c = NC1(C(=O)O)CCCC1; Sar = CNCC(=O)O; Propyl = CCC*
Entries and their IC50 values follow.
Please reply with the bare figure in nM and do not write the unit itself.

A selection of reference data follows.
- molecule: "CCCOC[C@H]1C(=O)N(C)CC(=O)N[C@@H](CCc2ccc(C(F)(F)F)c(Cl)c2)C(=O)N2CCC[C@H]2C(=O)NC2(CCCC2)C(=O)N(C)[C@@H](C2CCCCC2)C(=O)N(C)[C@H](C(=O)N2CCCC2)CC(=O)N(C)[C@@H](CC(C)C)C(=O)N[C@@H]([C@@H](C)CC)C(=O)N(C)CC(=O)N(C)CC(=O)N1C [Compound 2006] ([NMeL]I[Sar][Sar][NMeS](Propyl)[Sar][hPhe(3-Cl-4-CF3)]P[Ac5c][NMeChg][NMeD]-Pyrrolidide; lactam N-11)"
  IC50 / nM: 0.62
- molecule: "CC[C@H](C)[C@@H]1NC(=O)[C@H](CC2CCC2)N(C)C(=O)C[C@@H](C)NC(=O)[C@H](C(C)C)N(C)C(=O)C2(CCCC2)NC(=O)[C@@H]2CCCN2C(=O)[C@H](CCc2ccc(C(F)(F)F)c(Cl)c2)NC(=O)CN(C)C(=O)[C@H](CC2CCCCC2)N(C)C(=O)CN(C)C(=O)CN(C)C1=O [Compound 230] (cyclo([Ac5c][NMeV][d(β3hA)][NMeCba]I[Sar][Sar][NMeCha][Sar][hPhe(3-Cl-4-CF3)]P))"
  IC50 / nM: 39

Enquiry: What value of IC50 has been recorded for this entry: CC(C)C[C@H]1C(=O)N[C@@H](C2CCC2)C(=O)N(C)CC(=O)N(C)CC(=O)N(C)[C@@H](CC2CCCCC2)C(=O)N(C)CC(=O)N[C@@H](CCc2ccc(C(F)(F)F)c(Cl)c2)C(=O)N2CCC[C@H]2C(=O)NC2(CCCC2)C(=O)N(C)[C@@H](C2CCCCC2)C(=O)N(C)[C@H](C(=O)N2CCCC2)CC(=O)N1C [Compound 1988] ([NMeL][Gly(cBu)][Sar][Sar][NMeCha][Sar][hPhe(3-Cl-4-CF3)]P[Ac5c][NMeChg][NMeD]-Pyrrolidide; lactam N-11)
Return: 0.69
